Hey, just so you know, these numbers are from ChEMBL document CHEMBL1145402.

- experiment: Binding affinity to progesterone receptor
- Set-up: species or system Homo sapiens
pKi: −log10 of the molar value.
readout_name: pKi

Lab note: measured pKi of `CC[C@H]1[C@@H]2[C@@H](O)CCN2C(=O)N1c1ccc(C#N)c(Cl)c1C` was < 5.00

###

- experiment: Tmax in Sprague-Dawley rat at 10 mg/kg, po
- Format: ADME, organism-based
- Design: dose 10 mg/kg, route oral
- experimental_context: in vivo
readout_name: Tmax

Tmax measured on `CC[C@H]1[C@@H]2[C@@H](O)CCN2C(=O)N1c1ccc(C#N)c(Cl)c1C` = 48 min

###

- target_system: Cytochrome P450 2C9 (Homo sapiens, UniProt P11712)
- Sequence (P11712 whole entry): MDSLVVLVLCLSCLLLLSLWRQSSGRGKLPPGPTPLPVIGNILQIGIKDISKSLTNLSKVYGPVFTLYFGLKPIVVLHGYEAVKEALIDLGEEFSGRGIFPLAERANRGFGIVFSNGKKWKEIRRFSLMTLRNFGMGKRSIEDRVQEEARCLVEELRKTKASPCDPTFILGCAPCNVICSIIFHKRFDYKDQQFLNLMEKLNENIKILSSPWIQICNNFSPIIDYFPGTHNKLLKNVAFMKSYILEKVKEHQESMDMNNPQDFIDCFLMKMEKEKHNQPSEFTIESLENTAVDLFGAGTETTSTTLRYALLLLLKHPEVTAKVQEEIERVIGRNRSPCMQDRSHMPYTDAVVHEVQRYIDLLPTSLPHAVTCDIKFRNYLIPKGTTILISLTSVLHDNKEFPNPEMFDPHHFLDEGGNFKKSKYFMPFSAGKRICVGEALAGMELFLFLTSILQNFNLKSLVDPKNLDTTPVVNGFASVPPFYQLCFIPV
readout_name: IC50

Entry `CC[C@H]1[C@@H]2[C@@H](O)CCN2C(=O)N1c1ccc(C#N)c(Cl)c1C` : IC50 on Cytochrome P450 2C9 (Homo sapiens, UniProt P11712) = > 40 µM

###

- target_system: Cytochrome P450 2D6 (Homo sapiens)
- Sequence (P10635 whole entry): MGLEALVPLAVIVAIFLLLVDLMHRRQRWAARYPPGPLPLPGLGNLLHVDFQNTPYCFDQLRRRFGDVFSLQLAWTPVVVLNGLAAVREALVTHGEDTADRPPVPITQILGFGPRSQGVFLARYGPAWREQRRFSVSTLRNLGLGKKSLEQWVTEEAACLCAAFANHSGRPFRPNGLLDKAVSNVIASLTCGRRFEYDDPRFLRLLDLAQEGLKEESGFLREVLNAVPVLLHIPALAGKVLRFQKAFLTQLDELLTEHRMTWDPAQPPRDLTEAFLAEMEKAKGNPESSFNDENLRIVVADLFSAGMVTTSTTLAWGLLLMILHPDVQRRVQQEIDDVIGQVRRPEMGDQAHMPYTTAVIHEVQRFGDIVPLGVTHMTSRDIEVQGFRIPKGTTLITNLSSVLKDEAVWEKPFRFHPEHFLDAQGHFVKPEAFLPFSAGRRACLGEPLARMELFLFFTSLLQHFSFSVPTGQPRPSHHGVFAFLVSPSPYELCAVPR
- experiment: Inhibition of CYP2D6
- Type: ADME
pIC50: −log10 of the molar value.
readout_name: pIC50

Looking up `CC[C@H]1[C@@H]2[C@@H](O)CCN2C(=O)N1c1ccc(C#N)c(Cl)c1C` , I found its pIC50 recorded as < 4.40

###

- target_system: UniProt P08684
- Sequence (P08684 whole entry): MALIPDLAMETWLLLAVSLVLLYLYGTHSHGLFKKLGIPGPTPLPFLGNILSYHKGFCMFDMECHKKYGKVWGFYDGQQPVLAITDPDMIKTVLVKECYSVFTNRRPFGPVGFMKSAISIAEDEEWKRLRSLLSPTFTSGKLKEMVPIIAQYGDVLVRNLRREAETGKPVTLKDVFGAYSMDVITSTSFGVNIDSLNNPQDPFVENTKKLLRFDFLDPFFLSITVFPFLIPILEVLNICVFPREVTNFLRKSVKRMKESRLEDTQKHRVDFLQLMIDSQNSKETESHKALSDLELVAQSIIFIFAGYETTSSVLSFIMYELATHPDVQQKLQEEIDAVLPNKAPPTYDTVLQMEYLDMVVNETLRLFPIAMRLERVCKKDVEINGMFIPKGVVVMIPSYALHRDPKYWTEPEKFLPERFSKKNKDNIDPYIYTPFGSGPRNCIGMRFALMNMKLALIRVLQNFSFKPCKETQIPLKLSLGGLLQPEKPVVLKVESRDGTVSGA
readout_name: IC50

Reported IC50 ( `CC[C@H]1[C@@H]2[C@@H](O)CCN2C(=O)N1c1ccc(C#N)c(Cl)c1C` ) = > 40 µM

###

- target_system: Sex hormone-binding globulin (Homo sapiens, UniProt P04278)
- Sequence (P04278 whole entry): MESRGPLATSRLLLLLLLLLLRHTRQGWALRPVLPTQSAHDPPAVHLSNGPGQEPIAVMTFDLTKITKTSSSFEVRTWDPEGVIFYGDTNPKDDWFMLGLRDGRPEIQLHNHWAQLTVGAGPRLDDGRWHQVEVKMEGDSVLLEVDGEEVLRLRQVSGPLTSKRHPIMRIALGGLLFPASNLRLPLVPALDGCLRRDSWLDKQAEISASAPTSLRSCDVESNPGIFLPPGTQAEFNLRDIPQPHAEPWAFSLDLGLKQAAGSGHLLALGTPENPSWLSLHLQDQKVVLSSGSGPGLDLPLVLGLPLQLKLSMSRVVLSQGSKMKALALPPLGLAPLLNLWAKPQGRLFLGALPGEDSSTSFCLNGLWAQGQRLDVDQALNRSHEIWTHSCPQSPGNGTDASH
readout_name: Ki

Reported Ki of `CC[C@H]1[C@@H]2[C@@H](O)CCN2C(=O)N1c1ccc(C#N)c(Cl)c1C` : > 100 µM

###

- experiment: Clearance in Sprague-Dawley rat at 10 mg/kg, po and 5 mg/kg, iv
- Format: ADME, organism-based
- experimental_context: in vivo
readout_name: clearance (mL/min/kg)
Expressed in mL/min/kg, but write only the number.

clearance reported for this compound `CC[C@H]1[C@@H]2[C@@H](O)CCN2C(=O)N1c1ccc(C#N)c(Cl)c1C` : 58

###

- Tested on: Rattus norvegicus
- experiment: Stimulation of ventral prostate tissue weight in Sprague-Dawley rat at 1 mg/kg, po after 14 days
- Format: functional, Prostate gland
Rule: Activity below 3% gives rule met. Equal to or above 3% gives rule not met.

Take a look at these entries with their results.
* Cc1c(N2C(=O)N3CC[C@@H](O)[C@H]3[C@H]2C(F)(F)F)ccc(C#N)c1Cl | rule met
* Cc1c(N2C[C@@H]3[C@H](O)CCN3C2=O)ccc(C#N)c1Cl | rule not met
* CC[C@H]1[C@@H]2[C@@H](O)CCN2C(=O)N1c1ccc(C#N)c(Cl)c1C | rule not met

Ask: Threshold test, Activity < 3%: `Cc1c(N2C[C@@H]3[C@H](O)CC[C@@H]3C2=O)ccc(C#N)c1Cl`
Result: rule not met

###

- target_system: hERG (Homo sapiens, UniProt Q12809)
- Sequence (Q12809 whole entry): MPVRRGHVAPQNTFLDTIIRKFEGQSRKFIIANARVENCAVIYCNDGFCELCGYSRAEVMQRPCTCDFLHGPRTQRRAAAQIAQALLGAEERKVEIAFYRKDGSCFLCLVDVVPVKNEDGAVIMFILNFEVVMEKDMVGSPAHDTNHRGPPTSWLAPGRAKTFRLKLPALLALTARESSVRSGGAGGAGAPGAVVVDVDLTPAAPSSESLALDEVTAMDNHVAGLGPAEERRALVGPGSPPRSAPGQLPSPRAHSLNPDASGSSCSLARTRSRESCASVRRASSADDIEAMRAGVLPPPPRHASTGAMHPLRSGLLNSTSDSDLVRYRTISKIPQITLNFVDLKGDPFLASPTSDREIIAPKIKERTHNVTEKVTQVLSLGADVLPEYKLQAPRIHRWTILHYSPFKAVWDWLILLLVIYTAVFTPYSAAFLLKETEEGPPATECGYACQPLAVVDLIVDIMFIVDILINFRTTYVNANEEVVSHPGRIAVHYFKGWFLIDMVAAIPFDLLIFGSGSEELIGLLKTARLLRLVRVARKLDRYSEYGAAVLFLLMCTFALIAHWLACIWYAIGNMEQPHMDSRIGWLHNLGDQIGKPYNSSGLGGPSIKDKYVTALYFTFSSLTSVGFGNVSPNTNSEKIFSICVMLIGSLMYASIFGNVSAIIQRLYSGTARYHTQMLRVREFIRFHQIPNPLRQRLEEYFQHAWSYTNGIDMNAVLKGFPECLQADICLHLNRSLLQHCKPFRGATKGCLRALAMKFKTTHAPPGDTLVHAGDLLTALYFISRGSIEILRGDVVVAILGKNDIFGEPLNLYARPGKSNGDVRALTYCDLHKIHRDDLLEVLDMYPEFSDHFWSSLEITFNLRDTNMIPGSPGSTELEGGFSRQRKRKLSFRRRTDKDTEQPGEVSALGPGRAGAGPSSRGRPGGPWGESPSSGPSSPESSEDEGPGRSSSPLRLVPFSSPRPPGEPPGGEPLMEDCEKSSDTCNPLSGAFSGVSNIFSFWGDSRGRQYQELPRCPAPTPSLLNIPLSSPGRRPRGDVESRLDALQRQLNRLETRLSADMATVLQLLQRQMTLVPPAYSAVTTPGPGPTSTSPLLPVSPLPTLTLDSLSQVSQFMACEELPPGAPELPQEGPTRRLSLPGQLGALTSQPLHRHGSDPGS
- experiment: Inhibition of hERG at 30 uM by patch clamp method
- Type: toxicity
readout_name: inhibition at 30 µM (%)
Unit % implied. Number only.

inhibition at 30 µM for `CC[C@H]1[C@@H]2[C@@H](O)CCN2C(=O)N1c1ccc(C#N)c(Cl)c1C` is 6

###

- System: Rattus norvegicus
- experiment: Stimulation of levator ani muscle weight in Sprague-Dawley rat at 1 mg/kg, po after 14 days
- Format: functional
Each entry below lists one item and its recorded Activity value.
Reply with the number, then its unit.

Entry under test: `Cc1c(N2C(=O)N3CC[C@@H](O)[C@H]3[C@H]2C(F)(F)F)ccc(C#N)c1Cl` . Its Activity was 30%

Per the records, this molecule ( `Cc1c(N2C[C@@H]3[C@H](O)CCN3C2=O)ccc(C#N)c1Cl` ) has Activity equal to 66%

What the record says about `Cc1c(N2C(=O)N3CC[C@@H](O)[C@H]3[C@@H]2C(F)(F)F)ccc(C#N)c1Cl` : Activity is 40%

Please fill in: Activity reported for `Cc1c(N2C[C@@H]3[C@H](O)CC[C@@H]3C2=O)ccc(C#N)c1Cl` = 45%

Activity in this record for `CC[C@H]1[C@@H]2[C@@H](O)CCN2C(=O)N1c1ccc(C#N)c(Cl)c1C` : 101%

###

- target_system: Estrogen receptor (Homo sapiens)
- Sequence (P03372 whole entry, looked up): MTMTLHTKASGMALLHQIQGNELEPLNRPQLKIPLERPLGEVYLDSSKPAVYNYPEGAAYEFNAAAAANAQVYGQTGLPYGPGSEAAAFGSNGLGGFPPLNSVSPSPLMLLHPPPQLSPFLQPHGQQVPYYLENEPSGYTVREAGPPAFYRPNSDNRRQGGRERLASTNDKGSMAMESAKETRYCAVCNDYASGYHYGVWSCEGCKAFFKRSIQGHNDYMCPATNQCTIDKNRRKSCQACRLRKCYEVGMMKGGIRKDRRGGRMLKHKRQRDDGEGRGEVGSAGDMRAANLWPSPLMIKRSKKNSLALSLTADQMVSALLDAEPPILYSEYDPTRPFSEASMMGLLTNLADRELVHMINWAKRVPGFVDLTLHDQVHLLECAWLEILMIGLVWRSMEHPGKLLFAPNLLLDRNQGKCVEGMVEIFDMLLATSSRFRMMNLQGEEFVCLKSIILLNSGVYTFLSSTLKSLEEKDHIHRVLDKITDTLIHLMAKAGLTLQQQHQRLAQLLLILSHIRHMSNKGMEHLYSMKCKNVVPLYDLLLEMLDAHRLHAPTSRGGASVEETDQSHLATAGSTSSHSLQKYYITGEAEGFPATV
readout_name: Ki

# compound `CC[C@H]1[C@@H]2[C@@H](O)CCN2C(=O)N1c1ccc(C#N)c(Cl)c1C` ; its Ki = > 10 µM

###

- target_system: Cytochrome P450 2C19 (Homo sapiens)
- Sequence (P33261 whole entry): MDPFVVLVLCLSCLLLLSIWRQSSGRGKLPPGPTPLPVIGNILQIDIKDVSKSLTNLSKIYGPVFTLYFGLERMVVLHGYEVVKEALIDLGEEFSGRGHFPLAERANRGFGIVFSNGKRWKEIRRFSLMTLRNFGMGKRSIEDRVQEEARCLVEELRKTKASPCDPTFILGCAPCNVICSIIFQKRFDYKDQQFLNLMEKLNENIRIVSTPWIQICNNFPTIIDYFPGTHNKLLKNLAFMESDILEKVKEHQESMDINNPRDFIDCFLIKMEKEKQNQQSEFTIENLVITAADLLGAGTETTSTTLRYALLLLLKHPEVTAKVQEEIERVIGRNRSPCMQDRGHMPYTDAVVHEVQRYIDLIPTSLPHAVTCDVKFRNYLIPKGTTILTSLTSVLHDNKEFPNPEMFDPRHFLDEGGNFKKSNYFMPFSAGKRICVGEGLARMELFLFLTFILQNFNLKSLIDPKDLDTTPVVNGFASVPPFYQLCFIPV
readout_name: IC50

Note to self: IC50 of `CC[C@H]1[C@@H]2[C@@H](O)CCN2C(=O)N1c1ccc(C#N)c(Cl)c1C` with Cytochrome P450 2C19 (Homo sapiens) was 7.6 µM

###

Here the recorded EC50 is given for each entry.
- target_system: Androgen receptor (Homo sapiens)
- experiment: Agonist activity at androgen receptor expressed in C2C12 mouse cells by luciferase reporter transactivation assay
Dear colleague, please return just the value in nM, with no unit written.

Check out these entries, answers already filled in.
* CC[C@H]1[C@@H]2[C@@H](O)CCN2C(=O)N1c1ccc(C#N)c(Cl)c1C | 1.8
* Cc1c(N2C[C@@H]3[C@H](O)CC[C@@H]3C2=O)ccc(C#N)c1Cl | 20
* CC[C@@H]1[C@@H]2[C@@H](O)CCN2C(=O)N1c1ccc(C#N)c(Cl)c1C | 7.1
* Cc1c(N2C(=O)N3CC[C@@H](O)[C@H]3[C@H]2C(F)(F)F)ccc(C#N)c1Cl | 2.1

Query `Cc1c(N2C(=O)N3CC[C@@H](O)[C@H]3[C@H]2C(C)C)ccc(C#N)c1Cl` yields EC50 of 108

Measured EC50 of `Cc1c(N2C(=O)N3CC[C@H](O)[C@H]3[C@H]2C(F)(F)F)ccc(C#N)c1Cl` : 48

In plain terms, `CC1=C(c2ccc(C#N)c(Cl)c2C)C(=O)N2CC[C@H](O)[C@@H]12` has a documented EC50 of 2

Entry `Cc1c(N2C(=O)N3CC[C@H](O)[C@H]3[C@@H]2C(F)(F)F)ccc(C#N)c1Cl` — recorded EC50 = 2.5

Measured EC50, `CC[C@H]1[C@@H]2[C@H](O)CCN2C(=O)N1c1ccc(C#N)c(Cl)c1C` : 2.6

# EC50 (compound: `Cc1c(N2C(=O)N3CC[C@@H](O)[C@H]3[C@@H]2C(F)(F)F)ccc(C#N)c1Cl` ) is 2.9

Form field EC50, entry `Cc1c(N2C[C@@H]3[C@H](O)CCN3C2=O)ccc(C#N)c1Cl` : 15

// `CC[C@@H]1[C@@H]2[C@H](O)CCN2C(=O)N1c1ccc(C#N)c(Cl)c1C` : EC50 value = 7.4

###

- target_system: Androgen receptor (Homo sapiens)
- Sequence (P10275 whole entry): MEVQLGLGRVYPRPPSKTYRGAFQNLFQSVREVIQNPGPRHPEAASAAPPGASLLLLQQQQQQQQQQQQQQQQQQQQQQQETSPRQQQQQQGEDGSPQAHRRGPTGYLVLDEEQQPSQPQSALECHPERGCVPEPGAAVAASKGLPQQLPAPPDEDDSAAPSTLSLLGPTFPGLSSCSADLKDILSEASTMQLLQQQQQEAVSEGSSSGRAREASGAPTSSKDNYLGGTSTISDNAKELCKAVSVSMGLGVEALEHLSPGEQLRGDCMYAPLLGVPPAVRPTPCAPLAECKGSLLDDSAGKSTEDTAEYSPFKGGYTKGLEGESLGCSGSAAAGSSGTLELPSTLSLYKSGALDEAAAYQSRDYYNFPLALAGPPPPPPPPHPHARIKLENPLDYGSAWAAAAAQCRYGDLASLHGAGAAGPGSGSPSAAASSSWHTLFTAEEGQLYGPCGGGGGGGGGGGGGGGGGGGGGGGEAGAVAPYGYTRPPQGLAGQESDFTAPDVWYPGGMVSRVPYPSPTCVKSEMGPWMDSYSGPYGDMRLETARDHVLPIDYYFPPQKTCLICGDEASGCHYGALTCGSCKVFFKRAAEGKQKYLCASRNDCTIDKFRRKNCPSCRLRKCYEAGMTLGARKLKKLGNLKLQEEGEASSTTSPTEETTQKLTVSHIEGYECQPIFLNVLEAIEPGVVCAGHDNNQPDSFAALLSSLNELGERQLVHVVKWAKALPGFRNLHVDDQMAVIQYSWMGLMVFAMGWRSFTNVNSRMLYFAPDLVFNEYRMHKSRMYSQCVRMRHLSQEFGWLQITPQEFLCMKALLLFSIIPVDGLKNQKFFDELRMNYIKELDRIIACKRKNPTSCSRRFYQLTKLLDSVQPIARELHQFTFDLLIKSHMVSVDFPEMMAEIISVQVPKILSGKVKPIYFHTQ
- experiment: Displacement of [3H]DHT from androgen receptor expressed in MDA-MB-453 cells
- Format: cell-based
readout_name: Ki (nM)
Field: numeric (nM). Do not append units.

Example compounds with recorded Ki:
- CC[C@H]1[C@@H]2[C@H](O)CCN2C(=O)N1c1ccc(C#N)c(Cl)c1C: 0.7
- Cc1c(N2C(=O)N3CC[C@@H](O)[C@H]3[C@H]2C(C)C)ccc(C#N)c1Cl: 23
- Cc1c(N2C(=O)N3CC[C@H](O)[C@H]3[C@H]2C(F)(F)F)ccc(C#N)c1Cl: 1.9
- Cc1c(N2C[C@@H]3[C@H](O)CCN3C2=O)ccc(C#N)c1Cl: 2
- Cc1c(N2C(=O)N3CC[C@@H](O)[C@H]3[C@H]2C(F)(F)F)ccc(C#N)c1Cl: 2.2

Looking up `CC[C@H]1[C@@H]2[C@@H](O)CCN2C(=O)N1c1ccc(C#N)c(Cl)c1C` , I found its Ki recorded as 0.9

The compound listed as `Cc1c(N2C(=O)N3CC[C@@H](O)[C@H]3[C@@H]2C(F)(F)F)ccc(C#N)c1Cl` has a reported Ki of 1

For this compound ( `CC[C@@H]1[C@@H]2[C@H](O)CCN2C(=O)N1c1ccc(C#N)c(Cl)c1C` ), measured Ki is 2.3
